Test system: PC-3 PIP/flu tumor-bearing mice
protocol-notes: Biodistribution studies in PC-3 PIP/flu tumor-bearing mice
setup-conditions: 48 h p.i.

compound: O=C(O)CCC(NC(=O)NC(CCCCNC(=O)C(Cc1ccc2ccccc2c1)NC(=O)C1CCC(CNC(=O)C(CCCCNC(=O)CCCc2ccc(I)cc2)NC(=O)CN2CCN(CC(=O)O)CCN(CC(=O)O)CCN(CC(=O)O)CC2)CC1)C(=O)O)C(=O)O (stereo not shown) [^177Lu-PSMA-ALB-03, metal not drawn]
target-or-test-system: PC-3 PIP/flu tumor-bearing mice
unit-annotation: % IA/g
Blood: 12.5
--
compound: O=C(O)CCC(NC(=O)NC(CCCCNC(=O)C(Cc1ccc2ccccc2c1)NC(=O)C1CCC(CNC(=O)C(CCCCNC(=O)CN2CCN(CC(=O)O)CCN(CC(=O)O)CCN(CC(=O)O)CC2)NC(=O)CCCCCCC(=O)NC(CCCCNC(=O)CCCc2ccc(I)cc2)C(=O)O)CC1)C(=O)O)C(=O)O (stereo not shown) [^177Lu-PSMA-ALB-04, metal not drawn]
target-or-test-system: PC-3 PIP/flu tumor-bearing mice
unit-annotation: % IA/g
Blood: 38.2
--
compound: O=C(O)CCC(NC(=O)NC(CCCCNC(=O)C(Cc1ccc2ccccc2c1)NC(=O)C1CCC(n2cc(CC(NC(=O)CN3CCN(CC(=O)O)CCN(CC(=O)O)CCN(CC(=O)O)CC3)C(=O)NC(CCCCNC(=O)CCCc3ccc(I)cc3)C(=O)O)nn2)CC1)C(=O)O)C(=O)O (stereo not shown) [^177Lu-PSMA-ALB-01, metal not drawn]
target-or-test-system: PC-3 PIP/flu tumor-bearing mice
unit-annotation: % IA/g
Blood: 12.0
--
compound: O=C(O)CCC(NC(=O)NC(CCCCNC(=O)C(Cc1ccc2ccccc2c1)NC(=O)C1CCC(CNC(=O)C(CCCCNC(=O)CN2CCN(CC(=O)O)CCN(CC(=O)O)CCN(CC(=O)O)CC2)NC(=O)CC(NC(=O)CC(NC(=O)CCCc2ccc(I)cc2)C(=O)O)C(=O)O)CC1)C(=O)O)C(=O)O (stereo not shown) [^177Lu-PSMA-ALB-05, metal not drawn]
target-or-test-system: PC-3 PIP/flu tumor-bearing mice
unit-annotation: % IA/g
Blood: 1.66

Sourced from patent US11629201B2
